# targetDesc: IGF-1R (Homo sapiens, UniProt P08069)
# Sequence (P08069 31-1367): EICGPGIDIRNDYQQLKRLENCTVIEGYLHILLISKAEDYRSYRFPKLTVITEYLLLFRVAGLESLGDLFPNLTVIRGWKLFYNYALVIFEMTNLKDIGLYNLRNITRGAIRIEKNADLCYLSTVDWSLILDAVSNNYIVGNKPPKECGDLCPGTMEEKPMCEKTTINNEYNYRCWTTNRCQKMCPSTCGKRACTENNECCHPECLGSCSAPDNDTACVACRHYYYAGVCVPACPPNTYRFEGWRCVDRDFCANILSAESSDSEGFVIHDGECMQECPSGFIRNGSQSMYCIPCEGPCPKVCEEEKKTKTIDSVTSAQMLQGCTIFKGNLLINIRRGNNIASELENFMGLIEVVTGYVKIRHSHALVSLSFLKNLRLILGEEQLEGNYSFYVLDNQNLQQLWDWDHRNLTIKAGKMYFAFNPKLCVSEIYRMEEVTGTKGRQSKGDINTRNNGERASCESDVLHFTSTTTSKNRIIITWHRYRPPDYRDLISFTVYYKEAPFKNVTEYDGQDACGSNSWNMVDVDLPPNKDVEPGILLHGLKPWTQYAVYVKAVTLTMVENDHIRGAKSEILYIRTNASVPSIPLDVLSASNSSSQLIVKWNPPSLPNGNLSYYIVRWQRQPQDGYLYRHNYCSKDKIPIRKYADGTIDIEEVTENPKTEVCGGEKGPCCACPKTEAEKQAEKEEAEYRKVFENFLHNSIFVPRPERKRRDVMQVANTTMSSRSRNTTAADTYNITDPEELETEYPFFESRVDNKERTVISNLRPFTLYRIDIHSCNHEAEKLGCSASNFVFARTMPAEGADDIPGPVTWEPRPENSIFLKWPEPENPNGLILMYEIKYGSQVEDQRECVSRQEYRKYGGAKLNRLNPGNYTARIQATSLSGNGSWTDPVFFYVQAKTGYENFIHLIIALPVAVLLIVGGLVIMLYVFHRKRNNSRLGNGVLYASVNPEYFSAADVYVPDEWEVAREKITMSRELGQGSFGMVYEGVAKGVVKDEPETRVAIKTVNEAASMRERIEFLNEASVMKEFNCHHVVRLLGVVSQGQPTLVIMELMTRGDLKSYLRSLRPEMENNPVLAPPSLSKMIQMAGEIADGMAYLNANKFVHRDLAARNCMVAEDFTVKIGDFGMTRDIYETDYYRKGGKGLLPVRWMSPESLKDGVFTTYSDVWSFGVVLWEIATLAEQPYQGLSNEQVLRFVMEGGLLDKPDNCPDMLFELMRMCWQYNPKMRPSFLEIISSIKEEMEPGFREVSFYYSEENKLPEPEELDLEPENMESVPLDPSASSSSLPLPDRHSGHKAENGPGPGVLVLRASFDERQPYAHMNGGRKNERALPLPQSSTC
# assayComment: Cellular IGF-1 Receptor ELISA
# testConditions: 3T3/IGF-1R cells
pIC50: −log10 of the molar value.
reportedMetric: pIC50

Q: Give its pIC50 value. Item: `CCOC(=O)c1cnc2ccc(C(F)(F)F)cc2c1Nc1ccc(Br)cc1`
Ans: < 4.00

Q: Same lookup for `CCOC(=O)c1cnc2ccc(C(F)(F)F)cc2c1NCc1ccccc1C(F)(F)F` , please.
Ans: < 4.00

Q: Same lookup for `CCOC(=O)c1cnc2ccc(C(F)(F)F)cc2c1Nc1ccc(Cl)cc1` , please.
Ans: < 4.00

Q: Same lookup for `CCOC(=O)c1cnc2cc(Cl)c(F)cc2c1Sc1ccc(Cl)cc1` , please.
Ans: < 4.30

Q: Same lookup for `CCOC(=O)c1cnc2c(F)ccc(F)c2c1Sc1cccc(C(F)(F)F)c1` , please.
Ans: < 4.00
